Tested on: SR leukemia
assaySummary: NCI tumour cell line growth inhibition, 48 h; in the data active = GI50 below about 0.43 µM; inactive = the rest
Entry note: the call must match one of active, inactive

Worked set:
compound	assignedLabel
CC(C)CCC[C@@H](C)[C@H]1CC[C@H]2[C@@H]3CC=C4C[C@@H](C(C(=O)O)C(=O)O)CC[C@]4(C)[C@H]3CC[C@]12C	active
OCc1ccc(N2CCC2c2ccc(F)cc2)cc1Cl (stereo unspecified)	inactive
CO[C@H](C(=O)[C@@H](O)[C@@H](C)O)[C@@H]1Cc2cc3cc(O[C@H]4C[C@@H](O[C@H]5C[C@@H](O)[C@H](O)C(C)O5)[C@H](O)C(C)O4)c(C)c(O)c3c(O)c2C(=O)[C@H]1O[C@H]1C[C@@H](O[C@H]2C[C@@H](O[C@H]3C[C@](C)(O)C(=O)C(C)O3)[C@@H](O)C(C)O2)[C@H](O)C(C)O1 (stereo partly specified)	active
CCCCCN(CCCCC)CC(O)c1cc(C)c2ccc3cc(C(C)C)ccc3c2c1 (stereo unspecified)	inactive
COC1=CC(c2ccc[nH]2)=N/C1=C\c1[nH]c(C)c(C(=O)OC(C)C)c1C	active
COc1cc(CNc2cnc3cc(N)cc(N)c3n2)cc(OC)c1	inactive
Cc1nc2ccccc2c(N)c1-c1cc(C)c2c(C)nc3ccccc3c2n1	active
NC(=O)c1sc(-n2cnc3ccccc32)cc1OCc1ccccc1Br	inactive

Check the results log: what was the call for CC1=C(C(=O)Nc2ccc(Cl)c(Cl)c2)C(c2cccc(Oc3ccccc3)c2)NC(=S)N1 (stereo unspecified) ? inactive

Test call, this compound: O=C([O-])CC(=O)[O-].O=C([O-])CC(=O)[O-].[K+].[Pd+2] inactive

What did this assay record as the result for CC/C=C\CCC/C=C1/C(=O)C=C[C@@H]1C/C=C\CCCC(=O)OC ? inactive

---

Tested on: KM12 colon
assaySummary: NCI tumour cell line growth inhibition, 48 h; in the data active means GI50 below about 0.43 µM; inactive means the rest
In this exercise, the only acceptable responses are 1 = active, 0 = inactive

Field: example entries. Status: answers known.
compound	tgt	assignedLabel
CO[C@H](C(=O)[C@@H](O)[C@@H](C)O)[C@@H]1Cc2cc3cc(O[C@H]4C[C@@H](O[C@H]5C[C@@H](O)[C@H](O)C(C)O5)[C@H](O)C(C)O4)c(C)c(O)c3c(O)c2C(=O)[C@H]1O[C@H]1C[C@@H](O[C@H]2C[C@@H](O[C@H]3C[C@](C)(O)C(=O)C(C)O3)[C@@H](O)C(C)O2)[C@H](O)C(C)O1 (some centres undefined)	KM12 colon	1
NC(Cc1c[nH]c2c(O)cccc12)C(=O)O (centres undefined)	KM12 colon	0
CC1=C(C(=O)Nc2ccc(Cl)c(Cl)c2)C(c2cccc(Oc3ccccc3)c2)NC(=S)N1 (centres undefined)	KM12 colon	0

Which outcome was entered for the compound CC[C@@]1(O)C[C@H](OC2CC(N(C)C)C(O)C(C)O2)c2c(O)c3c(c(O)c2[C@H]1OC1CC(N(C)C)C(O)C(C)O1)C(=O)c1cccc(O)c1C3=O (some centres undefined) in this test? 1

Please state the recorded outcome for this compound: COC1=CC(c2ccc[nH]2)=N/C1=C\c1[nH]c(C)c(C(=O)OC(C)C)c1C 1

Test call for this compound, please: COc1ccc(C(=O)Cn2c(C(=O)c3ccccc3)nc(-c3ccc(OC)cc3)c2-c2ccc(OC)cc2)cc1 0

Returns: the outcome recorded for CSc1nc2c(c(=O)[nH]1)N=C1c3ccccc3C(=O)C1C(c1ccccc1)N2 (centres undefined) in this assay. 0

Per the records of this test, what outcome belongs to Cc1nc2ccccc2c(N)c1-c1cc(C)c2c(C)nc3ccccc3c2n1 ? 0

Record request — test call for NC(=O)c1sc(-n2cnc3ccccc32)cc1OCc1ccccc1Br 0

These measurements were taken from PubChem BioAssay (NCI).
